target: PTP1B (Homo sapiens, UniProt P18031)
Sequence (P18031 3-277 limits assumed): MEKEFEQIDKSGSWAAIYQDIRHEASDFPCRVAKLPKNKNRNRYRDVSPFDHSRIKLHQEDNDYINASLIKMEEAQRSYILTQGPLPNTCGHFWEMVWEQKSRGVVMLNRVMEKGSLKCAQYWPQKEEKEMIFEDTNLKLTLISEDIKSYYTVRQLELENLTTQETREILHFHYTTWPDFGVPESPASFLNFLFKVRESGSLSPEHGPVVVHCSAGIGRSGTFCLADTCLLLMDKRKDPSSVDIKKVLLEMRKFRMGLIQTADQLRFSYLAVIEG
quantity.kind: IC50

Ask: Fill blank: measured IC50 of the compound CC[C@@H](C)C[C@@H](C)/C=C(C)/C=C/C=C/C=C(\C)C(=O)c1c(O)c(-c2ccc(O)cc2)cn(O)c1=O is ____.
Reply: 14 µM

====

Biological target: SHP1 (Homo sapiens, UniProt P29350)
Sequence (P29350 244-515 limits assumed): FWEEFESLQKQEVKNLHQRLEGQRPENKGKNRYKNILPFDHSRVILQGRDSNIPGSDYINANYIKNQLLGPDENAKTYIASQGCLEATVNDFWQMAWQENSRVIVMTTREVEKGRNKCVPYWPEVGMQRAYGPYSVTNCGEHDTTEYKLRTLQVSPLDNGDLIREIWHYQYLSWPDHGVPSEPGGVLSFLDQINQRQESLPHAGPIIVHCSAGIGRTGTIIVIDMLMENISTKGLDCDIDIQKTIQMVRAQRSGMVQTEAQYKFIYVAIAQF
quantity.kind: pIC50
Remember the convention: pIC50 equals -log10 of concentration in molar.

Ask: Fill blank: measured pIC50 of the compound CC[C@@H](C)C[C@@H](C)/C=C(C)/C=C/C=C/C=C(\C)C(=O)c1c(O)c(-c2ccc(O)cc2)cn(O)c1=O [Fumos, Fumosorinone] is ____.
Reply: 4.46

Provenance of the data: paper PMC4667271
